Recorded binding (percent of control), one value per entry.
molecular target: Desmoglein-3 (Homo sapiens) (UniProt P32926); test: blockers of anti-DSG3 scFv binding – biochemical, bead-based, flow cytometry, scFv-GFP, primary screen (AID 588358); settings: DSG3-coupled beads, at 10 µM, stronger effect = lower value;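 note: hits lower antibody fragment binding to DSG3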
Sequence (P32926 whole entry, looked up, the tested form may be a part): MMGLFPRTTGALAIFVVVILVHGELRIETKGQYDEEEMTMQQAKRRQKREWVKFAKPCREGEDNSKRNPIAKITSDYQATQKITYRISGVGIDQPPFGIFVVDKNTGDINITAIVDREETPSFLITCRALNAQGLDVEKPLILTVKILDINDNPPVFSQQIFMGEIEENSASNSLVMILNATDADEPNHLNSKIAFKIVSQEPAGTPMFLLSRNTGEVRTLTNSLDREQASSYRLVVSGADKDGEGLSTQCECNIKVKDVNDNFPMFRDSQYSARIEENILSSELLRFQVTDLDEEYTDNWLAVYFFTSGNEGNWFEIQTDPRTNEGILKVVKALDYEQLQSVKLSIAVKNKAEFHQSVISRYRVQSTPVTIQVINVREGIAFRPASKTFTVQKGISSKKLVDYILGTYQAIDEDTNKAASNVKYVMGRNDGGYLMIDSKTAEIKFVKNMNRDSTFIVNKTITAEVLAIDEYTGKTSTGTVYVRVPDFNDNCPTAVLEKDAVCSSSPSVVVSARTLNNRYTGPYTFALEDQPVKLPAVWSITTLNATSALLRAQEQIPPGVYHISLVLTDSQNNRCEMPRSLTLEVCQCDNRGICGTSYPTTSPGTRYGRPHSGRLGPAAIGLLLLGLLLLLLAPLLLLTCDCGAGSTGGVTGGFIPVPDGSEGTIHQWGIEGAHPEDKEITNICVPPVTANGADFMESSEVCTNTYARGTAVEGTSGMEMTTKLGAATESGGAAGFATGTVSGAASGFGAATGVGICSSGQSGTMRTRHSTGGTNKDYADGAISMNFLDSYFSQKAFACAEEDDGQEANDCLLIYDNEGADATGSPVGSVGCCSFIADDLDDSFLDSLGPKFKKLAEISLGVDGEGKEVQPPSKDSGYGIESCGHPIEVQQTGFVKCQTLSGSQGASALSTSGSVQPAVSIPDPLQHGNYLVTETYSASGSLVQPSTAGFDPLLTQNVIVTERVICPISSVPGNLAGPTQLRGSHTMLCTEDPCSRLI
Out of some 310,000 compounds screened, about 1,500 (0.48%) were called active. The list comes from a sample in which actives are over-represented; it also holds close analogues and randomly drawn compounds.
Value Kind: binding (percent of control) (%)

O=C(O)c1ccccc1CSc1nc2ccccc2s1 : 116
COCC1CCCCN1C(=O)c1cc(COc2ccc(C)c(C)c2)on1 (stereo not given) : 101
Cn1ncc([N+](=O)[O-])c1C(=O)Nc1cc(Cl)ccc1Cl : 102
CN1OC[C@@H]2CN(C(=O)c3ccc(-c4ccccc4)cc3)[C@H](c3ccc(-c4cccc(F)c4)cc3)C[C@@H]21 : 98.8
Cc1cccc(C(=O)OCC(=O)Nc2sccc2C(N)=O)c1C : 104
O=C(NCCOc1ccccc1)N1[C@H]2CC[C@@H]1C=C(c1ccc(F)cc1OCc1ccccc1)C2 : 107
O=C(OCc1ccccc1)N1CCC2CC1c1cc(N3CCN(S(=O)(=O)c4cc(Cl)cc(Cl)c4)CC3)ccc12 (stereo not given) : 100
COc1ccc(C=C2CCC3C(CCCC34OCCO4)C2=O)cc1 (stereo not given) : 104
COc1ccc(S(=O)(=O)N2CCC(C(=O)NCCC(=O)NCCc3cccc(F)c3)CC2)cc1 : 99
CCOc1ccccc1Nc1ccc2nonc2c1[N+](=O)[O-] : 96.1

* * *

Recorded binding (percent of control), one value per entry.
biological target: Desmoglein-3 (Homo sapiens); experiment: blockers of anti-DSG3 scFv binding – biochemical, bead-based, flow cytometry, scFv-GFP, primary screen (AID 588358); conditions: DSG3-coupled beads, at 10 µM, stronger effect = lower value;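 note: hits lower antibody fragment binding to DSG3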
The whole screen tested about 310,000 compounds, of which about 1,500 (0.48%) were called active. The sample as a whole holds a higher share of actives than the screen did.
Value Kind: binding (percent of control) (%)

CC(C)N=C1CCCC1C(=S)SSC(=S)C1CCCC1=NC(C)C (stereo unspecified) : 102
Cc1cccc(-c2nc(Nc3ccc(O)cc3)c3ccccc3n2)c1 : 324
O=C(c1ccc(N2CCCC2=O)cc1)N1CCN(c2ccc(C(F)(F)F)cc2[N+](=O)[O-])CC1 : 99
COCCn1cnc2c1c(=O)n(Cc1ccc(Br)cc1)c(=O)n2Cc1ccccc1 : 125
O=C(Cc1ccc([N+](=O)[O-])cc1)NCCS(=O)(=O)N1CCN(c2ccccc2)CC1 : 97.2
CC1=C(C(=O)Nc2cccc(C(=O)NCC(C)c3ccccc3)c2)SCCO1 (stereo unspecified) : 106
Cc1cccc(OCCNC(=O)CSc2ccc(C(F)(F)F)cc2[N+](=O)[O-])c1 : 114
Cn1nc(N)c2ncc(C(Cl)(Cl)Cl)nc21 : 100
N#CCCN(C(=O)Nc1ccc(Cl)c(Cl)c1)C1CCCCC1 : 105
Cc1ccc(C(=O)N[C@H](C(=O)N2CCN(c3ncccn3)CC2)C(C)C)cc1 : 96.6
N#CCCN(C(=S)Nc1ccc(Cl)c(Cl)c1)C1CCCCC1 : 105
CC(=O)Nc1ccc(C=Cc2ccc([N+](=O)[O-])cc2)cc1 : 101
O=c1[nH]c(-c2cccs2)nc2ccccc12 : 98.9
COc1ccc(N2CCN(c3ccc([N+](=O)[O-])nc3)CC2)cc1 : 77.8
C[C@@H]1CN([C@@H](C)CO)C(=O)c2cc(Br)cnc2O[C@H]1CN(C)Cc1ccc(-c2ccccc2)cc1 : 101
Cc1ccc2c(cnn2C(=O)CCC(=O)NC2CCCC2)c1 : 53
O=C(COC(=O)CCc1c[nH]c2ccccc12)Nc1cccc(Cl)c1 : 102
CCOC(=O)c1cc(-c2sc(NC(=O)c3ccccc3)nc2C)n(CCO)n1 : 96.7
CCCCCCn1c(=O)n2n(c1=O)C[C@]1(OC(=O)NCc3ccc(OC)c(OC)c3)CN(S(=O)(=O)c3ccc(C)cc3)C[C@]1(O)C2 : 108
COc1ccccc1NC(=O)C(CC(=O)O)Cc1cc(C)cc(C)c1 (stereo unspecified) : 96.8
Cc1cccc2c1cnn2C(=O)CCC(=O)NC1CCCCC1 : 102
